Where do these numbers come from? They come from PubChem BioAssay AID2060617.

system: 485368-065-R4-J2-PDC spheroids with HUVEC/MSC, viability; experiment: Anticancer human tumor 485368-065-R4-J2-PDC patient-derived pancreatic carcinoma cell line growth inhibition [CLK]; settings: second compound 0.1 µM; first compound 0.316 µM; active compounds read low;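 also: spheroids exposed to compounds for seven days; 100% = DMSO vehicle control wells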
VALUE_KIND: viability, T/C

MOLECULE	SYSTEM_UNDER_TEST	viability, T/C
Nc1ccccc1NC(=O)c1ccc(CNC(=O)OCc2cccnc2)cc1 + CN1CCN(c2cc(C(=O)Nc3cc4cc(-c5cnn(C)c5)ccc4cn3)ccn2)CC1	485368-065-R4-J2-PDC spheroids with HUVEC/MSC, viability	99.1%
Nc1ccn(C2OC(CO)C(O)C2(F)F)c(=O)n1 (stereo unspecified) + CNC(=O)c1ccc(Nc2nc(OC3CCCC3)c3c(-c4ccc5nc(C)oc5c4)c[nH]c3n2)c(OC)c1	485368-065-R4-J2-PDC spheroids with HUVEC/MSC, viability	31.1%
CC1COCCN1c1cc(C2(S(C)(=N)=O)CC2)nc(-c2ccnc3[nH]ccc23)n1 (stereo unspecified) + CN1CCN(c2cc(C(=O)Nc3cc4cc(-c5cnn(C)c5)ccc4cn3)ccn2)CC1	485368-065-R4-J2-PDC spheroids with HUVEC/MSC, viability	113%
C#Cc1c(F)ccc2cc(O)cc(-c3ncc4c(N5CC6CCC(C5)N6)nc(OCC56CCCN5CC(F)C6)nc4c3F)c12 (stereo unspecified) + CN1CCN(c2cc(C(=O)Nc3cc4cc(-c5cnn(C)c5)ccc4cn3)ccn2)CC1	485368-065-R4-J2-PDC spheroids with HUVEC/MSC, viability	96.3%
CC(Nc1ccc2c(c1)OCCn1cc(N3C(=O)OCC3C(F)F)nc1-2)C(N)=O (stereo unspecified) + CN1CCN(c2cc(C(=O)Nc3cc4cc(-c5cnn(C)c5)ccc4cn3)ccn2)CC1	485368-065-R4-J2-PDC spheroids with HUVEC/MSC, viability	93%
O=c1[nH]cc(F)c(=O)[nH]1 + CN1CCN(c2cc(C(=O)Nc3cc4cc(-c5cnn(C)c5)ccc4cn3)ccn2)CC1	485368-065-R4-J2-PDC spheroids with HUVEC/MSC, viability	115%

Problem: Reported viability, T/C, molecule CC(=O)O[C@H]1C(=O)[C@@]2(C)[C@H]([C@H](OC(=O)c3ccccc3)[C@]3(O)C[C@H](OC(=O)[C@H](O)[C@@H](NC(=O)c4ccccc4)c4ccccc4)C(C)=C1C3(C)C)[C@]1(OC(C)=O)CO[C@@H]1C[C@@H]2O + CN1CCN(c2cc(C(=O)Nc3cc4cc(-c5cnn(C)c5)ccc4cn3)ccn2)CC1 : ____
Solution: 30.8%
